Listing: PROTEASE % INHIB. of selected molecules
molecular target: HIV-1 protease (Human immunodeficiency virus type 1 group M subtype B); test: biochemical; conditions: Table II; enzyme HIV-1; DOSE 10.000 (unit not given)
Write the number in % without appending the unit.

Examples with answers:
>>> reported_result("Cn1cnc(S(=O)(=O)Nc2cccc(C(C3=C(O)CC(CCc4ccccc4)(CCC(F)(F)F)OC3=O)C(C)(C)C)c2)c1 (single isomer, unassigned) [Example 273]")
95.93
>>> reported_result("CCC(C1=C(O)C2CCCCC2OC1=O)c1cccc(NS(=O)(=O)c2ccc(C#N)cn2)c1 (centres unmarked)")
113.79
>>> reported_result("CC(C)(C)C(C1=C(O)C2CCCCCCC2OC1=O)c1cccc(NS(=O)(=O)c2ccc(C#N)cn2)c1 (centres unmarked)")
85.75

## Task Fill in the blank: the reported PROTEASE % INHIB. of CCC(C1=C(O)CC(CC(C)C)(CC(C)C)OC1=O)c1cccc(NS(=O)(=O)c2ccc(C#N)cn2)c1 (racemic) is ____.
## Result 107.61

## Task Try this molecule next: CCC[C@@]1(CCc2ccccc2)CC(O)=C([C@@H](c2cccc(NS(=O)(=O)c3cn(C)cn3)c2)C(C)(C)C)C(=O)O1 (single isomer, unassigned) [Example 308]
## Result 110.75
